- Target Or System: T1, soluble human TREM2 protein (TREM2 ECD-huIgG1 Fc fusion protein) (human, UniProt Q9NZC2 19-174, biotinylated)
- T1 construct: also called biotinylated soluble human TREM2 protein
- T1 sequence: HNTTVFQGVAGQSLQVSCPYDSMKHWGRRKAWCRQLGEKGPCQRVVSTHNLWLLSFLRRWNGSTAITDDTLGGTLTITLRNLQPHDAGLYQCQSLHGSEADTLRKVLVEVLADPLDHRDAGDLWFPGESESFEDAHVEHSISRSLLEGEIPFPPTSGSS
- Experimental Protocol: ELISA, hybridoma supernatant on captured biotinylated TREM2 ECD-Fc
Endpoint: OD 450

Before answering, review these 4 worked examples.
4C5 (antibody, V domains shown, human IgG2 from hybridoma) VH: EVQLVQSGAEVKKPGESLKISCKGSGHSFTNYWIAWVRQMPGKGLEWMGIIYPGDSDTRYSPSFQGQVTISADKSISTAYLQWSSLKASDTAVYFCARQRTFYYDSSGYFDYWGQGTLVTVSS VL: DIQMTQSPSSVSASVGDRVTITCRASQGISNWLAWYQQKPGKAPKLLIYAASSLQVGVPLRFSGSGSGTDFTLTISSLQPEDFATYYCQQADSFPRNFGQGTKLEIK
3.62 OD450
13E7 (antibody, human IgG2, V domains shown, human IgG2 from hybridoma) VH: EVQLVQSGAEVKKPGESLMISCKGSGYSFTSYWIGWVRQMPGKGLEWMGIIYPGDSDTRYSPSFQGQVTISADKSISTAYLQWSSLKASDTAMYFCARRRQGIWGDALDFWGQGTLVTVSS VL: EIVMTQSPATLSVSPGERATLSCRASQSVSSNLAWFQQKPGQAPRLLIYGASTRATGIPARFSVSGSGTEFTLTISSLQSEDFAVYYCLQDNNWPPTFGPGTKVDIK
0.73 OD450
32E3 (antibody, human IgG2, V domains shown, human IgG2 from hybridoma) VH: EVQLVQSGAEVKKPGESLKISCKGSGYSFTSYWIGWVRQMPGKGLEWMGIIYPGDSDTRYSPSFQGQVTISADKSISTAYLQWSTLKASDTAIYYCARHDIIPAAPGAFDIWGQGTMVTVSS VL: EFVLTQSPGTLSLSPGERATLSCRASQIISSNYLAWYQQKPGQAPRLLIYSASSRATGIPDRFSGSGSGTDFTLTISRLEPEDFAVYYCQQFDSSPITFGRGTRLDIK
1.41 OD450
6E7 (antibody, human IgG2, V domains shown, human IgG2 from hybridoma) VH: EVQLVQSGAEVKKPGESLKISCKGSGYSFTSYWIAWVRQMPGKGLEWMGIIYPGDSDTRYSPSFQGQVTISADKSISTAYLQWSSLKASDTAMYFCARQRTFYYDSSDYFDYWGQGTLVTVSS VL: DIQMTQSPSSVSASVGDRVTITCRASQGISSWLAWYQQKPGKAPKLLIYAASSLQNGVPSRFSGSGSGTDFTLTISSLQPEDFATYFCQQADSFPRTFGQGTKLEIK
3.17 OD450

Moving on to another binder below.
Can you share its OD 450? I mean this binder: 5E3 (antibody, human IgG2, V domains shown, human IgG2 from hybridoma) VH: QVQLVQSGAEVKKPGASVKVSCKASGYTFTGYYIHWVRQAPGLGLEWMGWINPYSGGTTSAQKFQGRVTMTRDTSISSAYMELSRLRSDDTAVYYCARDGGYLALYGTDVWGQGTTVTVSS VL: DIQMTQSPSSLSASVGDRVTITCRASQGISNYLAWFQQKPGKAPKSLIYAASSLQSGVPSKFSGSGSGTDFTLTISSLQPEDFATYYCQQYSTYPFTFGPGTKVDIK
3.88 OD450
